Data provenance is BindingDB's records for doi:10.1111/j.1747-0285.2005.00317.x.

target: UDP-N-acetylmuramoyl-tripeptide--D-alanyl-D-alanine ligase (Streptococcus pneumoniae (strain ATCC BAA-255 / R6), UniProt Q8DNV6); assay: Inhibition Assay
Sequence (Q8DNV6 whole entry): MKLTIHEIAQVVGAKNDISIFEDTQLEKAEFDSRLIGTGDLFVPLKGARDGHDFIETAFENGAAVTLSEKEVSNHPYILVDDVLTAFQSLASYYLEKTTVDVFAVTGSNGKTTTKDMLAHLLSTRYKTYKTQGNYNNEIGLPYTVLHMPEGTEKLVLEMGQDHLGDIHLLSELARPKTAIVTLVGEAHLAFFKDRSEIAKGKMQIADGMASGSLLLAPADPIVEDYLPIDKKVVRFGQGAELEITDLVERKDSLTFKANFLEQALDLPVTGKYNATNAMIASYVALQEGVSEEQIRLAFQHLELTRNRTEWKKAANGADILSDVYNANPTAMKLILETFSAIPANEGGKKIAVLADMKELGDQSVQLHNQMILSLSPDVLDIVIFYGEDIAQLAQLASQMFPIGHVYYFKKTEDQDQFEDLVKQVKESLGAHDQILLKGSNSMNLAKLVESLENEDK
Quick list: IC50 per entry.
The response must be a number in µM with no trailing unit.

compound="N#Cc1cc(CCc2ccccn2)sc1NC(=O)c1cc(S(=O)(=O)N2CCOCC2)ccc1Cl [MurF inhibitor, 14]" value=6
compound="N#Cc1c(NC(=O)c2cc(S(N)(=O)=O)ccc2Cl)sc2c1CCC2 [MurF inhibitor, 6]" value=78
compound="N#Cc1c(NC(=O)c2cc(S(=O)(=O)N3CCCCC3)ccc2Cl)sc2c1CCCC2 [MurF inhibitor, 5]" value=2.5
compound="N#Cc1c(NC(=O)c2cc(S(=O)(=O)C3CCOCC3)ccc2Cl)sc2c1CCC2 [MurF inhibitor, 3]" value=9
compound="CCN(CC)S(=O)(=O)c1ccc(Cl)c(C(=O)Nc2sc(Br)cc2C#N)c1 [MurF inhibitor, 13]" value=12.6

(Q) For the compound N#Cc1c(NC(=O)c2cc(S(=O)(=O)NCCCCO)ccc2Cl)sc2c1CCC2 [MurF inhibitor, 4] , give its measured IC50 value.
(A) 22

(Q) For the compound CCN(CC)S(=O)(=O)c1ccc(Cl)c(C(=O)Nc2sccc2C#N)c1 [MurF inhibitor, 12] , give its measured IC50 value.
(A) 151

(Q) For the compound CCN(CC)S(=O)(=O)c1cc(C(=O)Nc2sc3c(c2C#N)CCC(c2ccc(O)cc2)C3)c(Cl)cc1Cl (stereo not drawn) [MurF inhibitor, 15] , give its measured IC50 value.
(A) 0.07
